molecular target: adenosine A-2 receptors (Rattus norvegicus)
Sequence (P30543 whole entry): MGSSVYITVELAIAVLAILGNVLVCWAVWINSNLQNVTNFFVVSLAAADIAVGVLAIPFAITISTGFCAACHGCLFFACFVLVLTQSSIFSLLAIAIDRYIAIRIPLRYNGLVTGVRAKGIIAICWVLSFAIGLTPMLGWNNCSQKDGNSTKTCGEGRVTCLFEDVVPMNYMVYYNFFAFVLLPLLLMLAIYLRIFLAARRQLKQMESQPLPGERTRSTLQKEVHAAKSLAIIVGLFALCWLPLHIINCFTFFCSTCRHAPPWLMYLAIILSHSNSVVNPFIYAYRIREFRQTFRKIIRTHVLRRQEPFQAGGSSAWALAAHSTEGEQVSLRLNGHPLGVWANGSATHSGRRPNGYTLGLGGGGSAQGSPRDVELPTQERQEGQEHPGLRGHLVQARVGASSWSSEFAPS
value.kind: Ki (nM)
Only the number, expressed in nM, is required.

compound: C[C@@H](Cc1ccccc1)Nc1nc(N)c2ncn([C@@H]3O[C@H](CO)[C@@H](O)[C@H]3O)c2n1 [Compound 2, (S)-2-[(phenylisopropyl)amino]adenosine]
value.reported: 158

We now examine a further compound.
Q. Report Ki for C[C@H](Cc1ccccc1)Nc1nc(N)c2ncn([C@@H]3O[C@H](CO)[C@@H](O)[C@H]3O)c2n1 [Compound 1, (R)-2-[(phenylisopropyl)amino]adenosine] please.
A. 3.5
